Biological target: T1, NOD mouse SIRP-α D1 domain (mouse (NOD strain))
T1 chain: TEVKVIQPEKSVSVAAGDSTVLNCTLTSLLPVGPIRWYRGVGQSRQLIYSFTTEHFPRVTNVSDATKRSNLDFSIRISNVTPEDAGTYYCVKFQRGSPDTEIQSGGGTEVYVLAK
Experiment: SPR, Langmuir fit
Measured koff of individual entries
Response body: numeric value in s⁻¹, unit text excluded.

S23 (scFv, V domains shown, also called clone 23) VH: DVQLVESGGGVVRPGESLRLSCAASGFTFSSHAMSWVRQAPGKGLEWLAGISAGGSDTYYIDSVKGRFTISRDNSKSSLYLRMNSLTAEDTAVYYCARETWNHLFDYWGLGTLVTVSS VL: ALTQPASVSANPGETVKITCSGGDYYSTYYAWYQQKSPGSAPVTVIHSDDERPSDIPSRFSGSASGSAATLIITGVRVEDEAVYFCGGYDGRTYINTFGAGTTLTVL    0.000823
S202 (scFv, V domains shown) VH: DVQLVESGGGVVRPGESLRLSCAASGFTFSSYAMSWVRQAPGKGLEWLAGISAGGSDTYYIDSVKGRFTISRDNSKNSLYLQMNSLTAEDTAVYYCARETWNHLFDYWGLGTLVTVSS VL: ALTQPASVSANPGETVKITCSGGGYYSTYYGWYQQRSPGSAPVTVIHSDDKRPSDIPSRFSGSASGSAATLTITGVRVEDEAVYYCAGYDGRTYLNTFGAGTTLTVL    0.000509
S65 (scFv, V domains shown, also called clone 65) VH: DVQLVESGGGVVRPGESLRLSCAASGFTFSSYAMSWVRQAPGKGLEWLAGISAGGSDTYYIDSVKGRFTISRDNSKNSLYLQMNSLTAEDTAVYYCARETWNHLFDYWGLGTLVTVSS VL: ALTQPASVSANPGETVKITCSGGDYYSTYYGWYQQKSPGSAPVTVIHSDDKRPSDIPSRFSGSASGSAATLTITGVRVEDEAVYFCGAYDGRTYINTFGAGTTLTVL    0.000607

Give the measured koff of S70 (scFv, V domains shown, also called clone 70) VH: DVQLVESGGGVVRPGESLRLSCAASGFTFSSYAMSWVRQAPGKGLEWLAGISAGGSDAYYIDSVKGRFTISRDNSKNSLYLQMNSLTAEDTAVYYCARETWNHLFDYWGLGTLVTVSS VL: ALTQPASVSANPGETVKITCSGGDWYSTYYGWYQQKSPGSAPVTVIHSDDKRPSDIPSRFSGSASGSAATLTITGVRVEDEAVYYCAGYDGRTYINTFGAGTTLTVL . 0.000672

Give the measured koff of S201 (scFv, V domains shown) VH: DVQLVESGGAVVRPGETLRLSCTASGFTFSSYAMSWVRQAPGKGLEWVSGISASGSDTYYADSVKGRSTISRDNSKNTLYLRMSSLTAEDTAVYYCARETWNHLFDYWGLGTLVTVSS VL: ALTQPASVSANPGETVKITCSGGGTSSYYGWYQQKSPGSAPVTLIHSDDKRPSDIPSRFSGSASGSTATLTITGVQVEDEAVYYCGGYDYTTYVNTFGAGTTLTVL . 0.00215
